Where these numbers come from: paper PMC3547291

# target_or_system: PDGFRβ (Homo sapiens)
# Sequence (P09619 33-1106): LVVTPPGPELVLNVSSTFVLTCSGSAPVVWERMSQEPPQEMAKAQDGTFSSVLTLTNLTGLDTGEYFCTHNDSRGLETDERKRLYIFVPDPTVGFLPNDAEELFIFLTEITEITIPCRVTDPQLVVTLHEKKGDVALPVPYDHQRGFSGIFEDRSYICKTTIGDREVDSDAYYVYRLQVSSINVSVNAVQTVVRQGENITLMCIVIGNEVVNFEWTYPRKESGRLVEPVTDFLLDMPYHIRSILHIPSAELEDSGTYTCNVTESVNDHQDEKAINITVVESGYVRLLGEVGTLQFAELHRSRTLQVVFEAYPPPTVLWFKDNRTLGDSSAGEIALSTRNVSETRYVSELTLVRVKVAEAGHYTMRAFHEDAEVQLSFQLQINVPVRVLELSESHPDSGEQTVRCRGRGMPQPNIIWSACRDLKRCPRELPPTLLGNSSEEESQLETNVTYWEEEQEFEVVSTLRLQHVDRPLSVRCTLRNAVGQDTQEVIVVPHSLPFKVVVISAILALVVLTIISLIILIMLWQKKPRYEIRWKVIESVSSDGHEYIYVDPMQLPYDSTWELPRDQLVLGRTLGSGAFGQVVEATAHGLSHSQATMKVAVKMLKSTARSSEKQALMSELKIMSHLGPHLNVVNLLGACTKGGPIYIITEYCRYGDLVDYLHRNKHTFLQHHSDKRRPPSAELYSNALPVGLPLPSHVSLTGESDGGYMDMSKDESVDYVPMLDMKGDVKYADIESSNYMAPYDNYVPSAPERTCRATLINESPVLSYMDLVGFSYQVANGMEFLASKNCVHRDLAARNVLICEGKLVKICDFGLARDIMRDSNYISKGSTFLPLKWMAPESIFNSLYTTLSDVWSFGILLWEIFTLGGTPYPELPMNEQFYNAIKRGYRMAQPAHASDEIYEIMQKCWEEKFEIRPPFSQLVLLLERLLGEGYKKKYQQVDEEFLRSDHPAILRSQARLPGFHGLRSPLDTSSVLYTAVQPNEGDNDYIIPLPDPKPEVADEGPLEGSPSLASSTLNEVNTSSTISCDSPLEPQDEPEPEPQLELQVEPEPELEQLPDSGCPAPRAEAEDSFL
# assay_explanation: Kinase inhibition functional assay
# Format: biochemical
observable: IC50

Query: Give the measured IC50 of Cc1cn(-c2cc(F)cc(NC(=O)c3ccc(C)c(Nc4nccc(-c5cccnc5)n4)c3)c2)cn1 .
Reply: > 50 µM

---

# target_or_system: FLT3 (Homo sapiens)
# Sequence (P36888 27-993): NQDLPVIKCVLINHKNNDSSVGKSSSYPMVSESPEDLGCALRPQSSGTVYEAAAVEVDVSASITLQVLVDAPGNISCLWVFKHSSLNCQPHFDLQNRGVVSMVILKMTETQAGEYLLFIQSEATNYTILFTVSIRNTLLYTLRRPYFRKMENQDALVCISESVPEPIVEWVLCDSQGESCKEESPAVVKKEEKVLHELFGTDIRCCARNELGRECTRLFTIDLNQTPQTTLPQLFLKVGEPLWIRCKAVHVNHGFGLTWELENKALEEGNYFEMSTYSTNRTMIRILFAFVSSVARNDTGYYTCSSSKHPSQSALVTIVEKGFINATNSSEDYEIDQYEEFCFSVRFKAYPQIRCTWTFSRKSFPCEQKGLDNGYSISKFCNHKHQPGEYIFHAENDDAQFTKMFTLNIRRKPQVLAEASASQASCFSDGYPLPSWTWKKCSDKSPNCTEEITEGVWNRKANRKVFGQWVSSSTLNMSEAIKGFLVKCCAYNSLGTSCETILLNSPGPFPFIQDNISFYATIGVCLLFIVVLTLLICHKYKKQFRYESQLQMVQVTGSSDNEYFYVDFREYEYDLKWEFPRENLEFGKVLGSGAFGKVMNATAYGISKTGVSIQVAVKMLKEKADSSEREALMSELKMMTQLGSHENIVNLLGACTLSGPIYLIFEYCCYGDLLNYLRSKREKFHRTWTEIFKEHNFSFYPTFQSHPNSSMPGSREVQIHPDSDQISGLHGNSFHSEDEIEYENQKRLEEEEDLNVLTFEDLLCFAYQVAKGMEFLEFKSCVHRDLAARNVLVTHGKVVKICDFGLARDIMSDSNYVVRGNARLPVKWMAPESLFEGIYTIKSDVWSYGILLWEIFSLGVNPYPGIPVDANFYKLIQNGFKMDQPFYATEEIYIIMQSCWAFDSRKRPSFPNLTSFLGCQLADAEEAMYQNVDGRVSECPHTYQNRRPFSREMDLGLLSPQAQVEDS
# assay_explanation: Kinase inhibition functional assay
observable: pIC50
Please treat pIC50 as minus the base-10 logarithm of the molar concentration.

Query: Give the measured pIC50 of Cc1cc(NC(=O)c2ccc(C)c(Nc3nccc(-c4cccnc4)n3)c2)cc(-n2cnc(C)c2)c1 [Compound 2c] .
Reply: 6.93
